test system: Cytomegalovirus (Viral Strain Towne); experiment: Cytomegalovirus Plaque Reduction Assay; type: cell-based; settings: Human betaherpesvirus 5, HEF; CMV; calculated from least squares fit of FIG. 1; read-out: 50% effective dose (ED50)
We begin with a simple list: items and their reported EC50.
I only need the number, in µM, no unit after it.

# compound, recorded-metric, quantitative-readout
measured = [
    ("O[C@H]1[C@H](O)[C@@H](O)CN2CC[C@H](O)[C@H]12 [Castanospermine, castanospermine, reference compound]", "EC50", 600),
]

Pending compound:
Request: Data request, read-out EC50, for "CCCCN1C[C@H](O)[C@@H](O)[C@H](O)[C@H]1CO"
Result: 570
